# Test system: PLK3;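 further: KINOMEscan kinase panel screen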
# RUN_CONDITIONS: concentration: 1 μM, replicates: in singlicate; n = 1
METRIC_NAME: %Inh

INSERT INTO results (structure_smiles, system_name, value_reported) VALUES
  ('O=C(Nc1cccc(-c2nn3ccccc3c2-c2ccnc(Nc3cccc(C(F)(F)F)c3)n2)c1)c1c(F)cccc1F', 'PLK3', '0%'),
  ('CN1CCN(Cc2cccc(-c3ccc4c(Nc5ccc(Oc6ccccc6)cc5)ccnc4c3)c2)CC1', 'PLK3', '1%'),
  ('Cl.NC(=O)c1cccc(Nc2nccc(Nc3ccc(Oc4c(Cl)cccc4Cl)c(Cl)c3)n2)c1', 'PLK3', '30%'),
  ('CCn1c(-c2nonc2N)nc2c(C#CC(C)(C)O)nc(OC[C@H](N)c3ccccc3)cc21', 'PLK3', '0%'),
  ('c1ccc(-c2n[nH]cc2Nc2ccnc3ccccc23)nc1', 'PLK3', '0%'),
  ('CCn1c(-c2nonc2N)nc2c(C#CC(C)(C)O)ncc(OCCCCN)c21.O=C(O)C(F)(F)F.O=C(O)C(F)(F)F', 'PLK3', '0%'),
  ('CC(=O)Nc1nc2cnc(Nc3cc(NC(=O)c4cccc(C5(C#N)CC5)c4Cl)ccc3C)nc2s1', 'PLK3', '0%'),
  ('Fc1ccc(-c2ncn(C3CCNCC3)c2-c2ccnc(Oc3ccc(-c4ccccc4)cc3)n2)cc1', 'PLK3', '17%');
